# assay: protein stability index of a GFP-peptide fusion (GPS, HEK-293T) (PSI 1-6); higher = more stable;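 further: 24-mer peptide tiles fused after GFP, lentivirally expressed, FACS-sorted into six equal bins by GFP/DsRed ratio, decoded by Illumina sequencing, PSI is the read-weighted mean bin number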
# test_context: treatment: MLN4924 1 uM, 8 h; c terminus: a fixed tail appended
Would you mind sorting the entries by protein stability index according to these classes? low (below 3), intermediate (3 to below 5), high (5 or more)

SECGKAFPRKSELTEHQRIHTGIK [ZNF649] : intermediate
LENREEPWVKELQDSKEMKQLLDS [ZNF449] : high
DSDKLSGLWSRISHLVLPVQPVSS [TOR1AIP2] : low
DPSGVSGATVGRKSRRSRSESETS [C18orf25] : high
EKIQQDADSVITVGRGEVVTVRVP [ACBD3] : intermediate
IAHDFPGIGHKVDAVFMKDGFFYF [MMP1] : low
AAQSTKSPWNFLGDELYEQSDEEQ [CLPTM1] : high
VSFVERILKSQKERQCALRVFKAR [FBXO39] : low
LMSLQNQLKESKSKIDALSSEKLN [CEP70] : intermediate
RFLRAYREGALRAALQRSLAAALA [TRADD] : low
YYTTPIYRFRMKCHLCVNYIEMQT [YJU2B] : low
ETQNAFLNERKQASAIKKEELVAR [CHGB] : intermediate
DQLLLNYAKKESDLNGAQIKLREY [LMNB1] : intermediate
NRKSILSRHLNSQVKKTTTRWCHI [PHTF1] : low
SQIRLNREHKETCEMDWSDKMEAY [TEKT4] : intermediate
TTVVVFVASMVLGECRQMSSSSQI [CLCN6] : intermediate
QSNYDTKGKTAVDTVFRFDPRYNK [KLHL13] : intermediate
QCWKSLFIDTYSDVGRYIDHYAAI [FBXO3] : low
KIMEAESQKATRECEKSALTPGFS [FAN1] : intermediate

---

# assay: protein stability index of a GFP-peptide fusion (GPS, HEK-293T) (PSI 1-6); higher = more stable
# test_context: treatment: DMSO; c terminus: a fixed tail appended
# protein stability index per entry
endpoint_name: protein stability index

KAQLLARVNKEHEHKLKVVRDQIS [TRIM9] : 3.34
EAFLAQFSQLEDKFPGQSSFLWQR [TOR1AIP2] : 2.39
RLTQYMDGSGMPKTMQSEETRVWH [CAMK2D] : 3.44
IPGFKFDNSLINQIENLNIQVEDI [LOXL2] : 3.51
RCLIWGRKPKVIECSYTSADGQRH [DHCR7] : 2.61
EDTHVQIGQVHEEFKQNIENVSVE [FCHO1] : 5.48
VCYQYPGYRGYQYILECDHHGGDY [CRYBA1] : 2.35
RLNFQTPGMASHPPIPILELADHI [PTPRD] : 3.23
GGCTVGVAGEGVRRKGEMGLSAED [TRIM15] : 4.98
WKSHLKKVQKPLLQAPFLPPKAPP [RHOBTB1] : 3.21
FVCQCFEGYILREDGKTCRRKDVC [MATN2] : 1.99
SRREIRKIMGVEEEDDDDDDDDNL [ANKRD40] : 5.44
TEDSPLGTVVALLNVHDLDSEQNG [PCDHGA10] : 4.86
NKYDNTCLMIAAYKGHTDVVRYLL [FEM1B] : 2.44
LSLPYLPSGTPELEVPKPGQPSEP [CHIT1] : 5.09
STFASLIGPFGGFFASGFKRAFKI [CDS2] : 2.21
NDVRQAARSAASYMLFDPKDSVMQ [P3H4] : 3.97
EMSKDALPEKACQLDSRYWRITNA [FBXO3] : 3.55
PTTSHRLSRHDKAVQRFCLIGSLS [NETO1] : 2.28
DQLFMQEKARQLLGRLKPSHTSRT [MYBL2] : 3.29
MSGKSPVESSLNVKTKKNAPSATI [FBXO34] : 4.5
EQREWVLKSSILIAMAVYTYLRLI [INTS3] : 2.6
FIIFGTMEEMQNKAVVFFVFYLWS [HACD3] : 2.8
QHHHHHHHHHGRDFLLRAASFDVC [RHOBTB2] : 2.55
KIEDFREEMWTFRGKIHAFRGQIL [CCDC70] : 2.41
QWLVSQLSAASPDTGHDSDKSDQS [TRAF3IP2] : 4.66
MNTNSKEVLSLGVQVPEAWEELLT [ZSCAN9] : 3.08
TRDGFKLVMASLYHIYVALEEEIE [HMOX1] : 2.15
KDEEGRLRDPATITTLRVPVLRPM [PPP2R2B] : 3.78
NITINIVDDHTPWVKGSVPPPLDQ [CLPTM1] : 2.83
FPDLLLTKRDSFLKRLYRAPIDWI [ALG2] : 2.27
SGRNGEVSLDISPDLPFQIKPSEN [PCDHGC5] : 4.47
LLKPIPEYSPEEESEPPAPNIRNM [TRAF3IP2] : 5.12
